test system: S. typhimurium/E. coli reverse mutation, colony counts; assay: Bacterial reverse mutation test (aka Ames test) summary data;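 also: His-minus Salmonella and trp-minus E. coli WP2 uvrA pKM101 with or without liver S9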
Results filed as inconclusive are left out. The source made the active and inactive calls. No rule for the calls is given here.
MEASURED METRIC: outcome

[
  {
    "COMPOUND": "C=CC(C)C#N (stereo not drawn)",
    "TEST RESULT": "active; weakly positive"
  },
  {
    "COMPOUND": "C[CH2][Pb]([Cl])([CH2]C)[CH2]C",
    "TEST RESULT": "inactive; negative"
  },
  {
    "COMPOUND": "C=CC(=O)OCCOCCOC(=O)C=C",
    "TEST RESULT": "inactive; negative"
  },
  {
    "COMPOUND": "COc1cc2c(c3oc(=O)c4c(c13)CCC4=O)[C@@H]1C=CO[C@@H]1O2",
    "TEST RESULT": "active; positive"
  },
  {
    "COMPOUND": "OCc1c[nH]c2ccccc12",
    "TEST RESULT": "active; positive"
  }
]

Task: Entry FC(F)(F)c1ccccc1Cl : reported outcome = ?
Result: inactive; negative

Task: Given the compound CCCCCCCCCCCCCCCCN , what is its reported outcome?
Result: inactive; negative

Task: For ClC(Cl)Cl , what is its reported outcome?
Result: inactive; negative

Task: Entry CN(C)c1ccccc1 has what outcome?
Result: inactive; negative

Task: Which outcome is reported for this compound? CC(=O)C=Cc1ccc2c(c1)OCO2
Result: inactive; negative

Task: So what does the record say about outcome for O=C(NCNC(=O)NC1C(=O)NC(=O)N1CO)NC1C(=O)NC(=O)N1CO (stereo not drawn) ?
Result: active; positive

Task: # query: outcome of entry OCC(CO)(CCBr)CCBr
Result: active; positive

Task: Request the reported outcome associated with CC(C)(C)N
Result: inactive; negative

Task: What value of outcome has been recorded for this entry: CCSCCC(N)C(=O)O (stereo not drawn)
Result: inactive; negative

Task: Value lookup for outcome; key = Cc1cc2nc3c(=O)[nH]c(=O)nc-3n(C[C@H](O)[C@H](O)[C@H](O)CO)c2cc1C
Result: inactive; negative

Task: Endpoint output: outcome of Nc1ccc(-c2ccccc2)cc1 . Value?
Result: active; positive

Task: Returns the measured outcome for the input compound. Input: CC(O)CO (stereo not drawn)
Result: inactive; negative

Task: Given the entry COC(=O)c1ccccc1O , report its measured outcome.
Result: active; weakly positive

###

test system: S. typhimurium/E. coli reverse mutation, colony counts; test: Bacterial reverse mutation test (aka Ames test) summary data;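 also: His-minus Salmonella and trp-minus E. coli WP2 uvrA pKM101 with or without liver S9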
Inconclusive results are not listed. Active and inactive are the calls of the source. No rule for the calls is given here.
Lab note: assign the record to one of 1 (active), -1 (inactive)

Task: Field: outcome | Entry: CCCCCCCCC(=O)O
Result: -1

Task: Recorded test call requested for Cc1ccc(C(C)(C)C)cc1
Result: -1

Task: Identify the outcome logged in this assay for the compound shown: Nc1ccc([N+](=O)[O-])cc1[N+](=O)[O-]
Result: 1

Task: Identify the outcome logged in this assay for the compound shown: OCCOc1ccccc1
Result: -1

Task: Outcome? CCCCCCCCCC=CCC1CC(=O)OC1=O (stereo not drawn)
Result: -1

Task: In this assay, the call recorded for O=C([O-])c1ccccc1C1c2ccc([O-])c(Br)c2Oc2c1ccc(O)c2Br.[Zr+2] was what?
Result: -1

Task: Returns: the outcome recorded for Nc1cc(C(=O)O)c(O)c(S(=O)(=O)O)c1 in this assay.
Result: -1

Task: Call for entry Nc1cc(S(=O)(=O)[O-])cc2cc(S(=O)(=O)[O-])c(N=Nc3ccc(-c4ccc(N=Nc5c(S(=O)(=O)[O-])cc6cc(S(=O)(=O)[O-])cc(N)c6c5[O-])c([O-])c4)cc3[O-])c([O-])c12.[Cu+2].[Cu+2].[Na+].[Na+].[Na+].[Na+] :
Result: -1

Task: Called result for O=[N+]([O-])c1ccc(F)c([N+](=O)[O-])c1
Result: 1

Task: Assay outcome for Brc1c(Br)c(Br)c(Oc2c(Br)c(Br)c(Br)c(Br)c2Br)c(Br)c1Br : what was it?
Result: -1

Task: GET /call?item= CC1OC(C)OC(C)O1 (stereo not drawn) returns the recorded outcome of this test.
Result: 1

Task: Hello, I am checking results. What call was entered for [K+] ?
Result: -1

Task: Outcome logged for CCCC(=O)Cl in this assay:
Result: 1

Task: Any idea what this test logged for CCOc1ccc(NC(C)=O)cc1N ?
Result: 1

Task: Called result for COc1cccc(N)c1
Result: 1

Task: Any idea what this test logged for CC(C)[C@@H]1CC[C@@H](C)C[C@@H]1O ?
Result: -1

Task: Assay outcome for CCc1cccc(N)c1 : what was it?
Result: -1

Task: Hello, I am checking results. What call was entered for O=C(O)c1cc(=O)[nH]c(=O)[nH]1 ?
Result: -1

Taken from PubChem BioAssay AID2202554.
